- Tested on: HEK-293T
- assay.comment: Incucyte cell viability with HEK293T; further: unitless GR value; below 1 slowed growth and below 0 cell loss
- Format: toxicity, cell-based
- experimental.parameters: human, 0 h, 10 µM, compound concentration 10 uM, replicate number 2
Please provide measured Growth Rate for the entries that follow.
Field format: numeric only.

Lab request: please report Growth Rate under test system HEK-293T for Oc1c(-c2cccnc2)cnn1-c1ccccn1
-0.2

Lab request: please report Growth Rate under test system HEK-293T for CC(C)(C)c1cc(NC(=O)c2csc(Nc3ccc(Cl)cc3)n2)no1
-0.44

Lab request: please report Growth Rate under test system HEK-293T for COc1cc(C(C)C)c(Oc2cnc(NC(CO)CO)nc2N)cc1I
0.85

Lab request: please report Growth Rate under test system HEK-293T for C=CC(=O)Nc1cc(Nc2nccc(-n3cc(CN(C)C)c(-c4ccccc4)n3)n2)c(OC)cc1N1CCOCC1
0.8

Lab request: please report Growth Rate under test system HEK-293T for O=C1COc2cc(C(=O)N(Cc3ccc(C(=O)Nc4ccncn4)cc3)C3CC3)ccc2N1
-0.63

Lab request: please report Growth Rate under test system HEK-293T for O=C(Cc1ccccc1)Nc1nnc(N2C[C@H]3C[C@@H]2CN3c2cccnn2)s1
-0.11

Lab request: please report Growth Rate under test system HEK-293T for Nc1ncc2c(n1)-c1c([nH]c3ccc(C4=CCOCC4)cc13)CCC2
-0.64

Lab request: please report Growth Rate under test system HEK-293T for CC(C)NC(=O)[C@H]1CCC[C@H]1Nc1nc(Nc2ccc(CN(C)C)cc2)ncc1Br.Cl
-1

Lab request: please report Growth Rate under test system HEK-293T for O=C(O)c1ccc2c(c1)nc(NCc1ccccc1)c1ncncc12
-0.9

Lab request: please report Growth Rate under test system HEK-293T for CCCCCNC(=O)N1CCC(CN(Cc2ccc(Cl)cc2)Cc2ccc([N+](=O)[O-])s2)C1 (centres undefined)
-0.74

Lab request: please report Growth Rate under test system HEK-293T for Cc1cc(Nc2cc(N)ncn2)c(=O)n2c1C(=O)NC21CCCCC1
0.56

Lab request: please report Growth Rate under test system HEK-293T for CC(Sc1nc2c(cnn2-c2cccc(Cl)c2)c(=O)[nH]1)C(N)=O (centres undefined)
0.66

Lab request: please report Growth Rate under test system HEK-293T for Cc1nn(-c2ccccc2)c(Nc2ccccc2C(=O)O)c1-c1cc2nccnc2c(F)c1F
-0.55

Lab request: please report Growth Rate under test system HEK-293T for Cc1cc(OCc2nc3ccccc3s2)ccc1NC(=O)Nc1ccc(Cl)c(Cl)c1
-0.01

Lab request: please report Growth Rate under test system HEK-293T for Cc1nc2ccccc2c(-c2ccc3c4c(ccnc24)CCO3)c1[C@H](OC(C)(C)C)C(=O)O
0.86

Lab request: please report Growth Rate under test system HEK-293T for COc1ccc(-n2c(C)c([N+](=O)[O-])c3ccc(O)cc32)cc1
-0.46

Lab request: please report Growth Rate under test system HEK-293T for O=C1C[C@@H]2OCC=C3CN4CC[C@]56c7ccccc7N1[C@H]5[C@H]2[C@H]3C[C@H]46
0.94

Lab request: please report Growth Rate under test system HEK-293T for CCOC(=O)C1Cc2ccccc2CN1C(=O)c1ccc(SC)s1 (centres undefined)
-0.82

Lab request: please report Growth Rate under test system HEK-293T for CCOC(=O)C1=C[C@]2(CC)CCCN3CCc4c(n1c1ccccc41)[C@@H]32
0.71

Data provenance is ChEMBL document CHEMBL5303304.
